- target-entity: human chemokine CCR5 receptor (Homo sapiens)
- Construct: host or cells: CHO-K1-p242-CCR5 cells
- Sequence (P51681 whole entry): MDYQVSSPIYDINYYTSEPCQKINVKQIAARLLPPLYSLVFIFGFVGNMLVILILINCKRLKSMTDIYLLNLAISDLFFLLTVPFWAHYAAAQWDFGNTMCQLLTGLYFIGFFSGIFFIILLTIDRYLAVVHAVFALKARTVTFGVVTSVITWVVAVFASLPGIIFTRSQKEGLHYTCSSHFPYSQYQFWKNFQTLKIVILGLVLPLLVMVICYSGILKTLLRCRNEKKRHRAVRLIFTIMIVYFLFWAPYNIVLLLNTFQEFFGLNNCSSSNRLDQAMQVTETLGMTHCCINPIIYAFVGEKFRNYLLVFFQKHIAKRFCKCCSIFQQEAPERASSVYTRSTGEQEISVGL
- experiment-summary: CCR5 assay ([125I]MIP-1β binding)
- settings: 2 h; screened at 10 μM; Panlabs; read-out: CCR5 specific binding (%)
measured-metric: remaining activity at 10 µM

Consider the reported remaining activity at 10 µM for these compounds:
>>> recorded_result("CS(=O)(=O)c1ccc(C(=O)Nc2ccc(F)cc2)c[n+]1[O-] [drawing 129]")
"> 40%"
>>> recorded_result("O=C(Nc1ccc(F)cc1)c1ccc(S(=O)(=O)C2CCCC2)[n+]([O-])c1 [drawing 134]")
"> 40%"
>>> recorded_result("O=C(Nc1ccc(F)cc1)c1ccc(S(=O)(=O)Cc2ccccc2)[n+]([O-])c1 [drawing 133]")
"≤ 40%"
>>> recorded_result("O=C(Nc1ccc(F)c(F)c1)c1ccc(Cl)[n+]([O-])c1 [drawing 135]")
"≤ 40%"

Q) Endpoint output: remaining activity at 10 µM of CCCS(=O)(=O)c1ccc(C(=O)Nc2ccc(F)cc2)c[n+]1[O-] [drawing 132] . Value?
A) > 40%

* * *

- target-entity: human CXCR2 (IL8RB) chemokine receptor (Homo sapiens, UniProt P25025)
- Construct: host or cells: CHO cells
- Sequence (P25025 whole entry): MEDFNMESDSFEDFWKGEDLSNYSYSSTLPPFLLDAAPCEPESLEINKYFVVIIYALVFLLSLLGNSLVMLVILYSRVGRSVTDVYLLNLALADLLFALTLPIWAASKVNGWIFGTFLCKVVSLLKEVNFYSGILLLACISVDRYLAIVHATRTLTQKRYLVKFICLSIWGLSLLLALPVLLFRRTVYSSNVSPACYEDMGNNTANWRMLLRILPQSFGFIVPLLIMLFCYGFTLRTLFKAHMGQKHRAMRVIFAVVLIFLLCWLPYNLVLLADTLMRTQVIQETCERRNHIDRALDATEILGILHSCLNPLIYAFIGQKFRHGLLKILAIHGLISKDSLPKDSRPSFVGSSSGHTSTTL
- experiment-summary: Panlabs CXCR2 filtermat binding assay ([125I]Interleukin-8)
- settings: 1 h, screened at 10 μM, read-out: CXCR2 specific binding (%)
measured-metric: remaining activity at 10 µM

Consider the reported remaining activity at 10 µM for these compounds:
>>> recorded_result("CS(=O)(=O)c1ccc(C(=O)Nc2ccc(F)cc2)c[n+]1[O-] [drawing 129]")
"> 40%"
>>> recorded_result("O=C(Nc1ccc(F)cc1)c1ccc(S(=O)(=O)Cc2ccccc2)[n+]([O-])c1 [drawing 133]")
"> 40%"
>>> recorded_result("O=C(Nc1ccc(F)cc1)c1ccc(S(=O)(=O)C2CCCC2)[n+]([O-])c1 [drawing 134]")
"> 40%"
>>> recorded_result("O=C(Nc1ccc(F)cc1)c1ccc(Cl)[n+]([O-])c1 [drawing 128]")
"> 40%"
>>> recorded_result("CCCS(=O)(=O)c1ccc(C(=O)Nc2ccc(F)cc2)c[n+]1[O-] [drawing 132]")
"> 40%"
>>> recorded_result("O=C(Nc1ccc(F)c(F)c1)c1ccc(Cl)[n+]([O-])c1 [drawing 135]")
"> 40%"

Q) Endpoint output: remaining activity at 10 µM of CCS(=O)(=O)c1ccc(C(=O)Nc2ccc(F)cc2)c[n+]1[O-] [drawing 131] . Value?
A) > 40%

Q) Endpoint output: remaining activity at 10 µM of O=C(Nc1ccc(F)cc1)c1cc(Cl)c(Cl)[n+]([O-])c1 [drawing 136] . Value?
A) > 40%

Q) Endpoint output: remaining activity at 10 µM of O=C(Nc1ccc(F)cc1)c1ccc(S(=O)(=O)c2ccccc2)[n+]([O-])c1 [drawing 130] . Value?
A) > 40%

* * *

- target-entity: human CXCR1 (IL8RA) chemokine receptor (Homo sapiens, UniProt P25024)
- Construct: host or cells: CHO cells
- Sequence (P25024 whole entry): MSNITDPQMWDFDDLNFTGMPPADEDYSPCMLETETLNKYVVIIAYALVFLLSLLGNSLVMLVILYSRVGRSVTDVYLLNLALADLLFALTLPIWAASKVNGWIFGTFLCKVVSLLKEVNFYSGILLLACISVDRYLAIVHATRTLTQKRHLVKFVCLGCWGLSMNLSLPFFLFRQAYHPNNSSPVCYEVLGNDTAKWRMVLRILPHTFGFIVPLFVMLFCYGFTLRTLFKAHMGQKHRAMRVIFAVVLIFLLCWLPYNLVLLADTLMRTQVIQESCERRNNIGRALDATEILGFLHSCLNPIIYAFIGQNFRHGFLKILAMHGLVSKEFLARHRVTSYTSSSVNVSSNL
- experiment-summary: CXCR1 assay ([125I]Interleukin-8 binding)
- settings: screened at 10 μM; Panlabs; read-out: CXCR1 specific binding (%)
measured-metric: remaining activity at 10 µM

Consider the reported remaining activity at 10 µM for these compounds:
>>> recorded_result("CCS(=O)(=O)c1ccc(C(=O)Nc2ccc(F)cc2)c[n+]1[O-] [drawing 131]")
"≤ 40%"
>>> recorded_result("O=C(Nc1ccc(F)cc1)c1ccc(S(=O)(=O)c2ccccc2)[n+]([O-])c1 [drawing 130]")
"> 40%"
>>> recorded_result("O=C(Nc1ccc(F)cc1)c1ccc(S(=O)(=O)C2CCCC2)[n+]([O-])c1 [drawing 134]")
"≤ 40%"
>>> recorded_result("O=C(Nc1ccc(F)cc1)c1ccc(S(=O)(=O)Cc2ccccc2)[n+]([O-])c1 [drawing 133]")
"≤ 40%"
>>> recorded_result("O=C(Nc1ccc(F)c(F)c1)c1ccc(Cl)[n+]([O-])c1 [drawing 135]")
"≤ 40%"
>>> recorded_result("CS(=O)(=O)c1ccc(C(=O)Nc2ccc(F)cc2)c[n+]1[O-] [drawing 129]")
"> 40%"

Q) Endpoint output: remaining activity at 10 µM of O=C(Nc1ccc(F)cc1)c1ccc(Cl)[n+]([O-])c1 [drawing 128] . Value?
A) > 40%

Q) Endpoint output: remaining activity at 10 µM of CCCS(=O)(=O)c1ccc(C(=O)Nc2ccc(F)cc2)c[n+]1[O-] [drawing 132] . Value?
A) ≤ 40%

Q) Endpoint output: remaining activity at 10 µM of O=C(Nc1ccc(F)cc1)c1cc(Cl)c(Cl)[n+]([O-])c1 [drawing 136] . Value?
A) > 40%

* * *

Below, each entry is listed with its recorded remaining activity at 10 µM.
- target-entity: human chemokine CCR5 receptor (Homo sapiens)
- Construct: host or cells: CHO-K1-p242-CCR5 cells
- experiment-summary: CCR5 assay ([125I]MIP-1β binding)
- settings: 2 h; screened at 10 μM; Panlabs; read-out: CCR5 specific binding (%)

Q) Endpoint output: remaining activity at 10 µM of CCS(=O)(=O)c1ccc(C(=O)Nc2ccc(F)cc2)c[n+]1[O-] [drawing 131] . Value?
A) > 40%

Q) Endpoint output: remaining activity at 10 µM of O=C(Nc1ccc(F)cc1)c1cc(Cl)c(Cl)[n+]([O-])c1 [drawing 136] . Value?
A) ≤ 40%

Q) Endpoint output: remaining activity at 10 µM of O=C(Nc1ccc(F)cc1)c1ccc(S(=O)(=O)c2ccccc2)[n+]([O-])c1 [drawing 130] . Value?
A) ≤ 40%

Values from patent US7141590B2
